Provide the recorded IC50 for the entries that follow.
Target: human ALK5 (Homo sapiens)
Sequence (P36897 162-503): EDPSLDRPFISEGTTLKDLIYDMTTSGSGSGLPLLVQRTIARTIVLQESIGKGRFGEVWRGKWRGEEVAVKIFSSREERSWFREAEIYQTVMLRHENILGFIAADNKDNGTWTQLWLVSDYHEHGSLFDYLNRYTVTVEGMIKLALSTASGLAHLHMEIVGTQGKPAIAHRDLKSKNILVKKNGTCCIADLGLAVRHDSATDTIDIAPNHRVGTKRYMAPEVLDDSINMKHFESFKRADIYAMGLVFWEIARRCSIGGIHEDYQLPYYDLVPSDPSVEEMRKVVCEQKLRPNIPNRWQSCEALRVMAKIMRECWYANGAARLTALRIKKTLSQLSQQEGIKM
Assay: ALK5 Enzyme Assay 1
Format: biochemical
Set-up: 6His tagged ALK5 protein (amino acids 162-503) expressed in insect cells; 6His; made in house; host or cells: insect cells
Details: read-out: EAA: activity (μM) using Enzyme Assay 1
Numbers only, in µM.

Would you please look over these solved cases?
COc1cc(Nc2cc(Oc3ccc(C)nc3-c3cccc(F)c3)ccn2)cc(OC)c1OC :: 0.00379
CCc1ccc(Oc2ccnc(Nc3ccc(S(N)(=O)=O)cc3)c2)c(-c2ccccn2)n1 :: 0.0161
Cc1cc(Oc2ccnc(Nc3cccc(CO)c3)c2)c(-c2ccccn2)nc1C :: 0.00977
Cc1cc(Oc2ccnc(Nc3ccn(C)n3)c2)c(-c2ccccn2)nc1C :: 0.0935

Kindly give each listed record's IC50.
1. Cc1cc(Oc2ccnc(Nc3ccc(CO)cc3)c2)c(-c2ccccn2)nc1C
2. COc1cc(Nc2cc(Oc3cc(C)c(C)nc3-c3cccc(C)n3)ccn2)cc(OC)c1OC
3. CCn1nccc1Nc1cc(Oc2cc(C)c(C)nc2-c2ccccn2)ccn1
4. Cc1cc(Oc2ccnc(Nc3cccnc3)c2)c(-c2ccccn2)nc1C
5. COc1cc(Nc2cc(Oc3cccnc3-c3cccc(C)n3)ccn2)cc(OC)c1OC
6. Cc1cc(Oc2ccnc(Nc3ccc4[nH]ccc4c3)c2)c(-c2ccccn2)nc1C
7. COc1cc(Nc2cc(Oc3cccnc3)ccn2)cc(OC)c1OC
8. COc1cc(Nc2cc(Oc3ccc(C)nc3)ccn2)cc(OC)c1OC

[0.0172, 0.0337, 0.0425, 0.0129, 0.0783, 0.205, 5.5, 0.174]

Each molecule below has a reported value. Please supply its IC50.
1. COc1cc(Nc2cc(Oc3cc(C)c(C)nc3-c3nc(C)c(C)s3)ccn2)cc(OC)c1OC
2. Cc1cc(Oc2ccnc(Nc3cccc(C#N)c3)c2)c(-c2ccccn2)nc1C
3. Cc1cc(Oc2ccnc(Nc3ccc(S(N)(=O)=O)cc3)c2)c(-c2ccccn2)nc1C
4. CCc1ccc(Oc2ccnc(Nc3cc(OC)c(OC)c(OC)c3)c2)c(-c2cccc(C)n2)n1
5. Cc1cc(Oc2ccnc(Nc3cc(N4CCOCC4)cc(N4CCOCC4)c3)c2)c(-c2ccccn2)nc1C

1: 0.00951; 2: 0.0141; 3: 0.0219; 4: 0.0274; 5: 0.0772

Value sought for every listed molecule: IC50.
1. Cc1cc(Oc2ccnc(Nc3ccc(N4CCN(C)CC4)cc3)c2)c(-c2ccccn2)nc1C
2. COc1cc(Nc2cc(Oc3ccc(C)nc3-c3cnn(C)c3)ccn2)cc(OC)c1OC
3. Cc1cc(Oc2ccnc(Nc3cccc(Cl)c3)c2)c(-c2ccccn2)nc1C
4. Cc1cc(Oc2ccnc(Nc3cccc(F)c3)c2)c(-c2ccccn2)nc1C
5. COc1cccc(-c2nc(C)ccc2Oc2ccnc(Nc3cc(OC)c(OC)c(OC)c3)c2)c1
6. COc1cc(Nc2cc(Oc3cccnc3-c3ccc(NC(C)=O)cc3)ccn2)cc(OC)c1OC
7. Cc1cc(Oc2ccnc(Nc3ccccc3Cl)c2)c(-c2ccccn2)nc1C [Example 194B]
8. Cc1cc(Oc2ccnc(Nc3ccc(C(=O)N(C)C)cc3)c2)c(-c2ccccn2)nc1C

[0.0104, 0.0153, 0.0073, 0.0166, 0.0187, 0.23, 2.8, 0.00706]
